Recorded melting point values for a group of compounds are listed next.

Request: Please give the measured melting point for this compound: CCc1cnc2c(c1)c(C#N)c(-c1ncc(S(=O)(=O)NC(C)C)cn1)n2C1CCC1
Result: 170 to 178 °C

***
Request: Please give the measured melting point for this compound: CC[C@H](NS(=O)(=O)c1ccc(-c2c(C#N)c3cc(C)cnc3n2C2CCC2)nc1)C(F)(F)F
Result: 138 to 144 °C

Request: Please give the measured melting point for this compound: NC(=O)c1c(-c2ccc(S(=O)(=O)NC3(C(F)(F)F)CC3)cc2)n(C2CCC2)c2ncc(C(F)(F)F)cc12
Result: 261 to 263 °C

Request: Please give the measured melting point for this compound: Cc1cnc2c(C#N)c(-c3ccc(S(=O)(=O)NC4(C(F)(F)F)CC4)cn3)n(C3CCCC3)c2c1
Result: 249 to 251 °C

Request: Please give the measured melting point for this compound: CSc1cnc2c(c1)c(C#N)c(-c1ccc(S(=O)(=O)NC3(C(F)(F)F)CC3)cn1)n2C1CCCC1
Result: 200 to 203 °C

Request: Please give the measured melting point for this compound: CC(C)NS(=O)(=O)c1ccc(-c2c(C#N)c3cc(F)cnc3n2CC2CC2)cc1
Result: 162 to 165 °C

Request: Please give the measured melting point for this compound: Cc1cnc2c(c1)c(C#N)c(-c1ccc(S(=O)(=O)N[C@@H](C)C(F)(F)F)cc1)n2CC1CCC1
Result: 154 to 158 °C

Request: Please give the measured melting point for this compound: CC(C)(C)S(=O)(=O)Nc1ccc(-c2c(C(N)=O)c3cc(C(F)(F)F)cnc3n2C2CCC2)cc1
Result: 257 to 259 °C

Request: Please give the measured melting point for this compound: Cc1cnc2c(c1)c(C#N)c(-c1ccc(S(=O)(=O)N[C@@H](C)C(F)(F)F)cn1)n2CC1CCC1
Result: 135 to 139 °C

Request: Please give the measured melting point for this compound: CCc1cnc2c(c1)c(C#N)c(-c1ccc(S(=O)(=O)NC(C)(C)C(F)(F)F)cc1)n2C1CCC1
Result: 190 to 195 °C

Request: Please give the measured melting point for this compound: Cc1cnc2c(c1)c(C#N)c(-c1ccc(S(=O)(=O)N[C@@H](C)C(F)(F)F)cc1)n2C1CCC1
Result: 197 to 198 °C

Request: Please give the measured melting point for this compound: COc1cnc2c(c1)c(C#N)c(-c1ccc(S(=O)(=O)NC(CF)CF)cc1)n2C1CCC1
Result: 215 to 218 °C

Request: Please give the measured melting point for this compound: NC(=O)c1c(-c2ccc(S(=O)(=O)NC3(C(F)(F)F)CC3)cn2)n(C2CCC2)c2ncc(C(F)F)cc12
Result: 210 to 212 °C

Request: Please give the measured melting point for this compound: CCc1cnc2c(c1)c(C(N)=O)c(-c1ccc(S(=O)(=O)N[C@@H](C)C(F)(F)F)cn1)n2C1CCC1
Result: 236 to 240 °C

Request: Please give the measured melting point for this compound: C[C@@H](NS(=O)(=O)c1ccc(-c2c(C#N)c3ccc(C4CC4)nc3n2C2CCC2)nc1)C(F)(F)F
Result: 170 to 176 °C

Request: Please give the measured melting point for this compound: Cc1cnc2c(c1)c(C#N)c(-c1ncc(S(=O)(=O)N[C@@H](C)C(F)(F)F)cn1)n2C1CCC1
Result: 186 to 188 °C
